Attribution: BigSolDB 2.1

settings: in THF, 308.15 K
recordedEndpoint: solubility (mole fraction)
Answers are plain numbers.

Reported solubility (mole fraction) for `CC(=O)c1c(C)c([N+](=O)[O-])c(C(C)(C)C)c([N+](=O)[O-])c1C` was 0.266

====

details: in cyclohexane, 298.15 K
recordedEndpoint: solubility (mole fraction)
Answers are plain numbers.

Reported solubility (mole fraction) for `CC(=O)c1c(C)c([N+](=O)[O-])c(C(C)(C)C)c([N+](=O)[O-])c1C` was 0.0068

====

conditions: in DMAc, 283.15 K
recordedEndpoint: solubility (mole fraction)
Give bare numbers.

Memo: `CC(=O)c1c(C)c([N+](=O)[O-])c(C(C)(C)C)c([N+](=O)[O-])c1C` , reported solubility (mole fraction): 0.129

====

settings: in n-heptane, 318.15 K
recordedEndpoint: solubility (mole fraction)
One number for each entry.

Just so you know, measured solubility (mole fraction) for `CC(=O)c1c(C)c([N+](=O)[O-])c(C(C)(C)C)c([N+](=O)[O-])c1C` came out at 0.00878

====

conditions: in methanol, 308.15 K
recordedEndpoint: solubility (mole fraction)
One number for each entry.

Recorded solubility (mole fraction) (molecule `CC(=O)c1c(C)c([N+](=O)[O-])c(C(C)(C)C)c([N+](=O)[O-])c1C` ): 0.00385

====

settings: in THF, 303.15 K
recordedEndpoint: solubility (mole fraction)

According to the records, this molecule `CC(=O)c1c(C)c([N+](=O)[O-])c(C(C)(C)C)c([N+](=O)[O-])c1C` displays solubility (mole fraction) of 0.243

====

details: in ethyl acetate, 303.15 K
recordedEndpoint: solubility (mole fraction)

The reported solubility (mole fraction) of the compound `CC(=O)c1c(C)c([N+](=O)[O-])c(C(C)(C)C)c([N+](=O)[O-])c1C` was 0.121

====

conditions: in cyclohexane, 318.15 K
recordedEndpoint: solubility (mole fraction)
Numbers only.

Looking up `CC(=O)c1c(C)c([N+](=O)[O-])c(C(C)(C)C)c([N+](=O)[O-])c1C` , I found its solubility (mole fraction) recorded as 0.0153

====

conditions: in ethanol, 293.15 K
recordedEndpoint: solubility (mole fraction)
Give bare numbers.

Entry `CC(=O)c1c(C)c([N+](=O)[O-])c(C(C)(C)C)c([N+](=O)[O-])c1C` — recorded solubility (mole fraction) = 0.00364

====

conditions: in acetonitrile, 308.15 K
recordedEndpoint: solubility (mole fraction)
One number for each entry.

solubility (mole fraction) in this record for `CC(=O)c1c(C)c([N+](=O)[O-])c(C(C)(C)C)c([N+](=O)[O-])c1C` : 0.0455

====

settings: in ethanol, 298.15 K
recordedEndpoint: solubility (mole fraction)
One number for each entry.

Sample `CC(=O)c1c(C)c([N+](=O)[O-])c(C(C)(C)C)c([N+](=O)[O-])c1C` ; solubility (mole fraction) observed: 0.00435

====

conditions: in DMAc, 303.15 K
recordedEndpoint: solubility (mole fraction)
One number for each entry.

Looking up `CC(=O)c1c(C)c([N+](=O)[O-])c(C(C)(C)C)c([N+](=O)[O-])c1C` , I see its solubility (mole fraction) listed as 0.206

====

conditions: in DMAc, 278.15 K
recordedEndpoint: solubility (mole fraction)
Numbers only.

The molecule `CC(=O)c1c(C)c([N+](=O)[O-])c(C(C)(C)C)c([N+](=O)[O-])c1C` showed solubility (mole fraction) equal to 0.113
